- assayed-system: 5-hydroxytryptamine receptor 1D (Homo sapiens, UniProt P28221)
- Sequence (P28221 whole entry): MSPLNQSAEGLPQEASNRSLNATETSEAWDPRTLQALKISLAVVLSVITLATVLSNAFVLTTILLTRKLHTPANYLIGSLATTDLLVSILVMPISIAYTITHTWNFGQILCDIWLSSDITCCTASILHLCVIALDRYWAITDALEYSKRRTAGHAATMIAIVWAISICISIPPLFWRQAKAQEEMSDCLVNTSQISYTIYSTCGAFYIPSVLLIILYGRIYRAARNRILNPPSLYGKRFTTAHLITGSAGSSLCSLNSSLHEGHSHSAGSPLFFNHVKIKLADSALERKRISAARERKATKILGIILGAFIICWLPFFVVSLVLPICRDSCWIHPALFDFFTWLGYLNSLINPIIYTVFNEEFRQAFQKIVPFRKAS
measured-metric: Ki (nM)

CCCN1CCOC2c3cc(C(N)=O)ccc3CCC21 (stereo unspecified)
263

###

- assayed-system: 5-hydroxytryptamine receptor 4 (Cavia porcellus, UniProt O70528)
- Sequence (O70528 whole entry): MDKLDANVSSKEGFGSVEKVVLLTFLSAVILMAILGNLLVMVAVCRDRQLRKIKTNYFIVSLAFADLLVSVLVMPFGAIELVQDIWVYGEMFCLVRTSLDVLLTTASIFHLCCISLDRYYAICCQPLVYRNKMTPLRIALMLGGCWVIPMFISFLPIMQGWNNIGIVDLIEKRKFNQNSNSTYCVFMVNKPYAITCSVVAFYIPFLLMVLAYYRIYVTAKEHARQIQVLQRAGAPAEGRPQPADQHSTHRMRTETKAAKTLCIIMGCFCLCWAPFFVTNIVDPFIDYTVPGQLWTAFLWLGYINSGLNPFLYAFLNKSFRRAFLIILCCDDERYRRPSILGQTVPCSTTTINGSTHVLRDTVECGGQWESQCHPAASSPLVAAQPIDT
pKi: −log10 of the molar value.
pKi values for the compounds below.
measured-metric: pKi

CCCN(CCC)CCc1cccc2c1CC(=O)N2
< 5.00
CCCN1CCOC2c3cc(C(N)=O)ccc3CCC21 (configuration not stated)
< 5.00

###

- assayed-system: 5-hydroxytryptamine receptor 5A (Homo sapiens, UniProt P47898)
- Sequence (P47898 whole entry): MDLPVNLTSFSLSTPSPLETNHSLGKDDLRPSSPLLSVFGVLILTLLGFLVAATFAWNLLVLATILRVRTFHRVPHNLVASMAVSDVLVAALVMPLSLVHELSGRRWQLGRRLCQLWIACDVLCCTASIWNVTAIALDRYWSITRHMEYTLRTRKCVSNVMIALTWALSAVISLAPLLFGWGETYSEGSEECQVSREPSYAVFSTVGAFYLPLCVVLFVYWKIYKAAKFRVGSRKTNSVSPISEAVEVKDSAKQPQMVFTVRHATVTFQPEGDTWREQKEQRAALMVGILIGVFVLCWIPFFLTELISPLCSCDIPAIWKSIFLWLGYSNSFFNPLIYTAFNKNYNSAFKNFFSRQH
measured-metric: Ki

CCCN(CCC)CCc1cccc2c1CC(=O)N2
> 10 µM

###

- assayed-system: UniProt P34969
- Sequence (P34969 whole entry): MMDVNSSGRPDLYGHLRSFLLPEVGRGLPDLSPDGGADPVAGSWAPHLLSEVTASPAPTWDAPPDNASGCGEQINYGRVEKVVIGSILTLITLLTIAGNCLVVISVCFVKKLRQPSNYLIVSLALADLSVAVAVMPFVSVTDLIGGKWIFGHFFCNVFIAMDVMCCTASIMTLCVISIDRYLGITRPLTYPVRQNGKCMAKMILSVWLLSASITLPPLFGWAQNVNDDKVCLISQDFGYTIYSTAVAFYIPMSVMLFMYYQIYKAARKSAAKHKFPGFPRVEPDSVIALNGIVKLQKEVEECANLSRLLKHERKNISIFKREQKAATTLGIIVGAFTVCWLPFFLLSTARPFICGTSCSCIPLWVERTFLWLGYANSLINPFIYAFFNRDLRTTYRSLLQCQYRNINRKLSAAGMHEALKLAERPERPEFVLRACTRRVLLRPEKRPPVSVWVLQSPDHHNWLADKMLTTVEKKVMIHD
Ki values for the molecules below.
measured-metric: Ki (µM)

CCCN(CCC)CCc1cccc2c1CC(=O)N2
1.51
CCCN1CCOC2c3cc(C(N)=O)ccc3CCC21 (configuration not stated) [S32504]
0.661

###

- assayed-system: UniProt:P25100
- Sequence (P25100 whole entry): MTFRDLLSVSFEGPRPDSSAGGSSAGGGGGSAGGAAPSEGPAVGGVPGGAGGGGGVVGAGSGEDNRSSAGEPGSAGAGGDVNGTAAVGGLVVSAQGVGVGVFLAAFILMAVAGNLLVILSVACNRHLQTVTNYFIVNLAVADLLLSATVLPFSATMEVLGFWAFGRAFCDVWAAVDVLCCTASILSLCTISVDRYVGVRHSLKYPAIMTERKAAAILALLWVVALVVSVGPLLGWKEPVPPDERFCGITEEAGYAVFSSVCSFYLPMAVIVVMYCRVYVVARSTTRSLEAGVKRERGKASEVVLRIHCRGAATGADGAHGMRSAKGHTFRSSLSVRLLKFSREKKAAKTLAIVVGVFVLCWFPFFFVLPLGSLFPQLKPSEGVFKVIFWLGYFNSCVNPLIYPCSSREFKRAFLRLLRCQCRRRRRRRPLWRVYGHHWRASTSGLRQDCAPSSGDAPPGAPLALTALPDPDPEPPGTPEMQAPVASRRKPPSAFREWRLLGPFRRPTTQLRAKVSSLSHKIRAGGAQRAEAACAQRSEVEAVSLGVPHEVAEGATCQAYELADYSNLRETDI
measured-metric: Ki

CCCN1CCOC2c3cc(C(N)=O)ccc3CCC21 (stereo unspecified)
> 10 µM

###

- assayed-system: 5-hydroxytryptamine receptor 6 (Homo sapiens, UniProt P50406)
- Sequence (P50406 whole entry): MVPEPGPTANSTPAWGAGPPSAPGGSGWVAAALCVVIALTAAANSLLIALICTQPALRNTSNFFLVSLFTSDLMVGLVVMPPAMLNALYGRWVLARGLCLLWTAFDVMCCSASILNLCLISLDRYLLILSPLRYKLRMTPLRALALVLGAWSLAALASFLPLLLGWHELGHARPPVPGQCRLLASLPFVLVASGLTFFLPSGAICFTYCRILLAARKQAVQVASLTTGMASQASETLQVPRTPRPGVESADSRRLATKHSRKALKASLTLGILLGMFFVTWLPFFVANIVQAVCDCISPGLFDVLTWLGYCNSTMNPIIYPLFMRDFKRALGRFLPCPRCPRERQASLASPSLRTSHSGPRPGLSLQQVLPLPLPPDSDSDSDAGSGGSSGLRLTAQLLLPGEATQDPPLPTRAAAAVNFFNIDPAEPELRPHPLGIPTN
Ki values for the compounds below.
measured-metric: Ki

CCCN(CCC)CCc1cccc2c1CC(=O)N2
> 10 µM
CCCN1CCOC2c3cc(C(N)=O)ccc3CCC21 (configuration not stated)
> 10 µM

###

- assayed-system: 5-hydroxytryptamine receptor 2B (Homo sapiens)
- Sequence (P41595 whole entry): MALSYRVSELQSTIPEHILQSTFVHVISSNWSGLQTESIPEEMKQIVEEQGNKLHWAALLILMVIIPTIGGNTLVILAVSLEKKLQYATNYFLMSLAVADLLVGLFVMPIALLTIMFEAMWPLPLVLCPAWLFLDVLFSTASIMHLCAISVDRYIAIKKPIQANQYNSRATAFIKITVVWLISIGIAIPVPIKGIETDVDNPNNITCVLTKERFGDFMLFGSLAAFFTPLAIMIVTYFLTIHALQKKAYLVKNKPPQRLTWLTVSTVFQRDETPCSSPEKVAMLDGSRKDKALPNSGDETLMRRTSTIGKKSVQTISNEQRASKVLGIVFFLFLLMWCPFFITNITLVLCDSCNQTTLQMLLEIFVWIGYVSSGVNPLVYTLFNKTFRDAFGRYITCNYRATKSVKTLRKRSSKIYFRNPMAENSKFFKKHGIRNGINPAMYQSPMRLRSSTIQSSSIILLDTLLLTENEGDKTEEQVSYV
measured-metric: Ki (µM)

CCCN1CCOC2c3cc(C(N)=O)ccc3CCC21 (stereo unspecified)
4.57

###

- assayed-system: 5-hydroxytryptamine receptor 1A (Homo sapiens, UniProt P08908)
- Sequence (P08908 whole entry): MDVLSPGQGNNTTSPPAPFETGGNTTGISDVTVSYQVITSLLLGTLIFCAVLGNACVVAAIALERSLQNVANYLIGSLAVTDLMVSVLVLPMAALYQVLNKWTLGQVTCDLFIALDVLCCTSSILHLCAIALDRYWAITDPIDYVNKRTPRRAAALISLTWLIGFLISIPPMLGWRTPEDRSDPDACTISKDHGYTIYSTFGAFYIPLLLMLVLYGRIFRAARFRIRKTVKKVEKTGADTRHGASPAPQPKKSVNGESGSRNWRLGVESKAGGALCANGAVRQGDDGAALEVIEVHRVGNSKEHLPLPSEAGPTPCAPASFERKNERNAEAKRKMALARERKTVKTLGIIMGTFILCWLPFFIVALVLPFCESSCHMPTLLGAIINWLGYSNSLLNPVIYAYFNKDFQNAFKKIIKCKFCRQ
measured-metric: Ki (nM)

CCCN1CCOC2c3cc(C(N)=O)ccc3CCC21 (stereo unspecified)
257

###

- assayed-system: 5-hydroxytryptamine receptor 3A (Mus musculus, UniProt P23979)
- Sequence (P23979 whole entry): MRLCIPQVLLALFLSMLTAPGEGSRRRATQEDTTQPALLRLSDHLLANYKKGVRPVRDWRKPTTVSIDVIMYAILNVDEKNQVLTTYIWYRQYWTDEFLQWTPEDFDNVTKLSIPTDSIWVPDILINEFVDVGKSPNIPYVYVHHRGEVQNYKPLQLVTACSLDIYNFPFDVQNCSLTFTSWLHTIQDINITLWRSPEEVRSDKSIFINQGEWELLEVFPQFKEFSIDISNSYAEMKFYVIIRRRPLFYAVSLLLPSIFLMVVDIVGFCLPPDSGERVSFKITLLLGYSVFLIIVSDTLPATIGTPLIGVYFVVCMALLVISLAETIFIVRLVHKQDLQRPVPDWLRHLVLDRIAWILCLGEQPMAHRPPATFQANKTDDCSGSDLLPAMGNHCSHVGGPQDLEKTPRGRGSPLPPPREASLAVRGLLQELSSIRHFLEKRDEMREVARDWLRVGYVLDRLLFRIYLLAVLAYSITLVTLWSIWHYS
pKi: −log10 of the molar value.
measured-metric: pKi

CCCN(CCC)CCc1cccc2c1CC(=O)N2
< 5.00

###

- assayed-system: 5-hydroxytryptamine receptor 2A (Homo sapiens)
- Sequence (P28223 whole entry): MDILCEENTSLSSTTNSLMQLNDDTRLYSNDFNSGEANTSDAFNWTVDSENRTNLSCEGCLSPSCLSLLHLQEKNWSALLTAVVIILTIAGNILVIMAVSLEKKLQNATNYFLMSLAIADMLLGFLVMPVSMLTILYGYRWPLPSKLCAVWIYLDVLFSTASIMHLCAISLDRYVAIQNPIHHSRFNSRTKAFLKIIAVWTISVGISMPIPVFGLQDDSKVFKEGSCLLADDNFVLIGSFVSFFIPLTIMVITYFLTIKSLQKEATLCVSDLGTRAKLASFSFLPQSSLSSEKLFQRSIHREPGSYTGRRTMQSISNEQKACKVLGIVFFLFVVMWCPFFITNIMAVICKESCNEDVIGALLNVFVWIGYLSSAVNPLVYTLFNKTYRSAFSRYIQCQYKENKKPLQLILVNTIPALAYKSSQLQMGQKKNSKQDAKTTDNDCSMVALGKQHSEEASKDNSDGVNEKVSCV
pKi: −log10 of the molar value.
measured-metric: pKi

CCCN1CCOC2c3cc(C(N)=O)ccc3CCC21 (stereo unspecified)
5.28
